Where do these numbers come from? They come from the Human Domainome abundance scans (Beltran et al. 2025).

B1: Ankyrin-1, residues 1405 to 1484; numbered along this chain, P16157 (parent)
chain: MKMAVISEHLGLSWAELARELQFSVEDINRIRVENPNSLLEQSVALLNLWVIREGQNANMENLYTALQSIDRGEIVNMLE

Variants of: B1
experimental_protocol: abundance fitness (aPCA) (normalised: wild type 0, dead -1); higher = more abundant; growth selection in yeast, the domain comes from the species named
condition_set: Homo sapiens
Rule: abundance fitness under -0.2 gives F, otherwise T.

mutation_key	group
T65S	T

Determine whether measured abundance fitness meets or exceeds -0.2 for M78R T

Determine whether measured abundance fitness meets or exceeds -0.2 for L47W F

Determine whether measured abundance fitness meets or exceeds -0.2 for S69W F

Determine whether measured abundance fitness meets or exceeds -0.2 for Q56R T

Determine whether measured abundance fitness meets or exceeds -0.2 for E41M F
